assay: gradient 5% acetonitrile 3 min, to 50% in 2 min, to 85% in 15 min, held 3 min, 100 µL/min; conditions: column: Zorbax Extend-C18 2.1 x 50 mm; eluents: water / acetonitrile, 0.1% formic acid
# reported RP-LC retention time; entries follow
Could you give me the number in s? Just the number is fine.

For this molecule ( O=C(Nc1ccc2c(c1)OCO2)C1CCCN(c2ncc(-c3ccc(F)cc3)cn2)C1 (centres undefined) ), measured RP-LC retention time is 1060

More entries:
The molecule identified as Cc1ccccc1Nc1c(-c2cc(Br)ccc2F)nc2cccc(C)n12 registered its RP-LC retention time at 814

For record CC1Cc2cc(-c3cc(CC(=O)NCc4ccco4)no3)ccc2O1 (centres undefined) the listed RP-LC retention time is 616

// field: RP-LC retention time; key: Cc1ccc(C(=O)NC2CCN(c3cc(-c4cccs4)[nH]n3)C2)c(C)c1 (centres undefined) ; value = 742

Lab note: CCOC(=O)c1c(C)[nH]c(C)c1S(=O)(=O)N1CCC(C(=O)NCCN2CCCCCC2)CC1 gave RP-LC retention time of 592
